Tested on: DU-145 prostate
assayInfo: NCI-60 one-dose screen, 48 h (100 = growth as untreated, 0 = no growth, -100 = all killed)
measurementContext: 10 µM unless noted
This is part of a sample that, as a whole, favours compounds with a hit. Of some 83,000 tested, about 20% had one in any assay.
Please use label 1 whenever growth is not below 90%, and label 0 whenever it is.

### Prompt growth >= 90% for Cc1ccc(C(=O)/C(=C\c2ccc([N+](=O)[O-])cc2)S(=O)Cc2ccc(F)cc2)cc1 (stereo not given) ?
### Response label 0

### Prompt growth >= 90% for O=C(CCN1CCCC1)c1ccc([N+](=O)[O-])cc1 ?
### Response label 1

### Prompt growth >= 90% for Brc1ccc(Nc2csc(-c3ccccn3)n2)cc1 ?
### Response label 1

### Prompt growth >= 90% for N=C1C(c2nc3ccccc3s2)=C(O)CN1c1cc(Cl)cc(Cl)c1 ?
### Response label 0

### Prompt growth >= 90% for c1ccc2c(-c3nccs3)c[nH]c2c1 ?
### Response label 1
